Values from patent US20250250357A1

# OD450 per record follows
TEST TARGET: T1, human MSLN-R1-his protein (human, UniProt Q13421 296-390)
T1 construct: also called hMSLN-R1-his; human MSLN-R1 protein; not shown: His tag
T1 chain: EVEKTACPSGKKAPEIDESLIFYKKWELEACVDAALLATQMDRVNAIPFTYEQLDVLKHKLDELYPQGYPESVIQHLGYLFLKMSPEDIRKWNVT
MEASUREMENT PROTOCOL: ELISA, coated antigen; antibody 0.001 nM
REPORTED PROPERTY: OD450

binder="S009-F1.2.12 human-murine chimeric antibody (antibody, human IgG1, kappa, V domains shown, Chimeric IgG1/kappa) VH: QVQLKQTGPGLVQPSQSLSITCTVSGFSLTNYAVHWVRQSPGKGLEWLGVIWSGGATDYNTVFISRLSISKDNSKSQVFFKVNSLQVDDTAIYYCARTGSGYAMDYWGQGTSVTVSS VL: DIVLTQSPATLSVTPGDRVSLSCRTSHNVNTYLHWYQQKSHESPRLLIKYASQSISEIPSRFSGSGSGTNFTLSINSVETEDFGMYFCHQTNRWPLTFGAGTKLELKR" result_number=0.05
binder="S009-F1.59.1 human-murine chimeric antibody (antibody, human IgG1, kappa, V domains shown, Chimeric IgG1/kappa) VH: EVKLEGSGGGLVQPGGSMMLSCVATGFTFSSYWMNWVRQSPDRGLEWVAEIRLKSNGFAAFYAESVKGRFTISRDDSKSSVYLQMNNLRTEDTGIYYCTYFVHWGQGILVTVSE VL: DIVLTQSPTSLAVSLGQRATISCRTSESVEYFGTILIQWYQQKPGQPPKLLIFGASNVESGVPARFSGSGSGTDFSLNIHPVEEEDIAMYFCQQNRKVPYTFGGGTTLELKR" result_number=0.04
binder="S009-F1.35.24 human-murine chimeric antibody (antibody, human IgG1, kappa, V domains shown, Chimeric IgG1/kappa) VH: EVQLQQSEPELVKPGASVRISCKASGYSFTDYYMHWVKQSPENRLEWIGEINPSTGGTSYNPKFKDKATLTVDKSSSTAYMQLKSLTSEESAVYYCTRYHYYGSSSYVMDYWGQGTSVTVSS VL: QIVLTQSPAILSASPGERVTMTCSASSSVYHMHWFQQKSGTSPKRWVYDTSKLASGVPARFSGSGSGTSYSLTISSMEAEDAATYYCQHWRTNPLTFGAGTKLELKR" result_number=0.04
binder="S009-F1.62.9 human-murine chimeric antibody (antibody, human IgG1, kappa, V domains shown, Chimeric IgG1/kappa) VH: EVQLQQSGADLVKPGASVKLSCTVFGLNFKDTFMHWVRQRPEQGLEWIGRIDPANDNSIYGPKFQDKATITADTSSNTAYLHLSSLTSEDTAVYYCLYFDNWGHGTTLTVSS VL: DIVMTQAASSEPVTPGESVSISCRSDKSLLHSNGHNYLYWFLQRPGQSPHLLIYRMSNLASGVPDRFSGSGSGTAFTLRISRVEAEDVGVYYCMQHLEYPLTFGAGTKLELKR" result_number=0.04
binder="S009-F1.25.10 human-murine chimeric antibody (antibody, human IgG1, kappa, V domains shown, Chimeric IgG1/kappa) VH: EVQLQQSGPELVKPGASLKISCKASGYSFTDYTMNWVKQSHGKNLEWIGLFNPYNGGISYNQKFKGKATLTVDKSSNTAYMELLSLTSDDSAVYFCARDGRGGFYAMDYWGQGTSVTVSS VL: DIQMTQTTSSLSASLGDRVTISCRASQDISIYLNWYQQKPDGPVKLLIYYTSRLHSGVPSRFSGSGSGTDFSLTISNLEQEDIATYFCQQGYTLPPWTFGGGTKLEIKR" result_number=0.05
